Please respond with reported activity at 100 μM for every item in the list.
Tested on: CYP1A1/2
run-description: ethoxyresorufin deethylation activity in human hepatic microsome
assay-setup: human, microsomes, pH 7.4

What activity at 100 μM value was documented for this molecule, Cc1nc2c([nH]1)c(=O)n(C)c(=O)n2Cc1ccco1 [furafylline, reference compound] ?
32.3%

What activity at 100 μM value was documented for this molecule, C[C@]1(COc2ccc(N3CCC(Oc4ccc(OC(F)(F)F)cc4)CC3)cc2)Cn2cc([N+](=O)[O-])nc2O1 [Compound (A-R)] ?
98.6%

* * *

target-system: CYP2A6 (Homo sapiens, UniProt P11509)
Sequence (P11509 whole entry): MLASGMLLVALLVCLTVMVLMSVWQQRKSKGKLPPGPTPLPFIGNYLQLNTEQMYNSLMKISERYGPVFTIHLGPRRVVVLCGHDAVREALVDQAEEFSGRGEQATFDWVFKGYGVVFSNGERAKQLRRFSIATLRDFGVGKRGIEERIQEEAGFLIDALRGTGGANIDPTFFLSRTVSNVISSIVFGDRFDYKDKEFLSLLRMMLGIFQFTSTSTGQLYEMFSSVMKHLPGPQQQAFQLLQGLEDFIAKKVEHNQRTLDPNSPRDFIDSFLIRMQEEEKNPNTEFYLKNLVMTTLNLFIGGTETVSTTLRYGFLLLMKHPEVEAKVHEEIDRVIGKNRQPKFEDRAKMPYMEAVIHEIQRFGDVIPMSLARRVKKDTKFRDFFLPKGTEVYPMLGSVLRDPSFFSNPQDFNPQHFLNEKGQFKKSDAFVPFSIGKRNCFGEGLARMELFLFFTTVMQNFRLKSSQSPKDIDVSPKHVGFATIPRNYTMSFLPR
run-description: coumarin hydroxylation activity in human hepatic microsome
assay-setup: human, liver microsomes, pH 7.4, probe coumarin (2 μM), coumarin hydroxylation
attribute-measured: activity at 10 μM

What activity at 10 μM value was documented for this compound, C[C@]1(COc2ccc(N3CCC(Oc4ccc(OC(F)(F)F)cc4)CC3)cc2)Cn2cc([N+](=O)[O-])nc2O1 [Compound (A-R)] ?
103%
